# Test system: NCI-H226
# run_description: Cytotoxicity in human NCI-H226 cells assessed as growth inhibition after 72 hrs by XTT assay
# Type: functional, cell-based
# settings: NCI-H226, 72 h
Documented IC50 across a set of compounds
readout_name: IC50

>>> value_measured("CC(=O)O[C@@H](C)/C=C\\C(=O)N[C@H]1CC[C@@H](C/C=C(C)/C=C/[C@H]2OC(C)(C)C[C@@]3(CO3)[C@@H]2O)CC1")
"> 10 µM"
>>> value_measured("CC(/C=C/[C@H]1OC(C)(C)C[C@@]2(CO2)[C@@H]1O)=C\\C[C@H]1OC[C@@H](NC(=O)/C=C\\[C@H](C)OC(=O)C(C)C)CO1")
"> 10 µM"
>>> value_measured("CC(=O)O[C@H]1/C=C/C[C@@H](/C(C)=C/C=C/CC[C@H]2O[C@@H]2C[C@H](C)O[Si](C)(C)C(C)(C)C)OC(=O)CCCC[C@@]1(C)O")
"> 20 µM"

====

# System: MOLT-4
# run_description: Cytotoxicity in human MOLT4 cells assessed as growth inhibition after 72 hrs by XTT assay
# Assay type: functional, cell-based
# settings: MOLT-4, 72 h
Documented IC50 across a set of compounds
readout_name: IC50

>>> value_measured("CC(/C=C/[C@H]1OC(C)(C)C[C@@]2(CO2)[C@@H]1O)=C\\C[C@H]1OC[C@@H](NC(=O)/C=C\\[C@H](C)OC(=O)C(C)C)CO1")
"0.66 µM"
>>> value_measured("CC(=O)O[C@H]1/C=C/C[C@@H](/C(C)=C/C=C/CC[C@H]2O[C@@H]2C[C@H](C)O[Si](C)(C)C(C)(C)C)OC(=O)CCCC[C@@]1(C)O")
"15.5 µM"
>>> value_measured("CC(=O)O[C@@H](C)/C=C\\C(=O)N[C@H]1CC[C@@H](C/C=C(C)/C=C/[C@H]2OC(C)(C)C[C@@]3(CO3)[C@@H]2O)CC1")
"0.18 µM"

====

# run_description: Cytotoxicity in human JeKo1 cells assessed as growth inhibition after 72 hrs by XTT assay
# Type: functional, cell-based
# settings: JeKo-1, 72 h
Documented IC50 across a set of compounds
readout_name: IC50 (nM)

>>> value_measured("CC(=O)O[C@H]1/C=C/C[C@@H](/C(C)=C/C=C/CC[C@H]2O[C@@H]2C[C@H](C)O[Si](C)(C)C(C)(C)C)OC(=O)CCCC[C@@]1(C)O")
11600
>>> value_measured("CC(=O)O[C@@H](C)/C=C\\C(=O)N[C@H]1CC[C@@H](C/C=C(C)/C=C/[C@H]2OC(C)(C)C[C@@]3(CO3)[C@@H]2O)CC1")
110
>>> value_measured("CC(/C=C/[C@H]1OC(C)(C)C[C@@]2(CO2)[C@@H]1O)=C\\C[C@H]1OC[C@@H](NC(=O)/C=C\\[C@H](C)OC(=O)C(C)C)CO1")
290
